Ref: ChEMBL document CHEMBL2150877

Catalogue of pIC50 values
# protocol: Inhibition of gamma secretase assessed as reduction in Abeta42 production
pIC50: −log10 of the molar value.
quantity: pIC50

- compound: "COc1cc(Nc2ncn(Cc3cccc(Cl)c3)n2)ccc1-n1cnc(C)c1"
  quantity: "pIC50"
  observed.value: 6.89
- compound: "Cc1cn(-c2ccc(Nc3ncn(Cc4cccc(Cl)c4)n3)cc2C#N)cn1"
  quantity: "pIC50"
  observed.value: 6.66
- compound: "COc1ccc2c(c1)c(CC(=O)O)c(C)n2C(=O)c1ccc(Cl)cc1"
  quantity: "pIC50"
  observed.value: 4.60
- compound: "CC(C)CCN1C(c2cc(-c3ccc(C(F)(F)F)cc3)cc(C(CC(C)C)C(=O)O)c2)CCCC1C(F)(F)F (stereo not given)"
  quantity: "pIC50"
  observed.value: 6.96
- compound: "COc1cc(-c2cn(C(F)(F)c3ccc(C(F)(F)F)cc3)nn2)ccc1-n1cnc(C)c1"
  quantity: "pIC50"
  observed.value: 5.65

----------
# protocol: Tmax in po dosed mouse
# Type: ADME, organism-based
# condition.parameters: in vivo

- chemical.structure: "CCc1cc(Nc2nc(-c3ccc(-n4cnc(C)c4)c(F)c3)cs2)c(C)cc1C"
  Tmax / h: 3

----------
# protocol: Inhibition of gamma secretase assessed as reduction in Abeta42 production
pIC50: −log10 of the molar value.
Decision: pIC50 >= 7 yields Y, all other cases yield N.

- molecule: "COc1cc(Nc2nc3c(s2)CCCC3c2ccccc2)ccc1-n1cnc(C)c1 (centres undefined)"
  assigned.class: "Y"
- molecule: "COc1cc(NC(=O)C(C)c2cccc(F)n2)ccc1-c1ccnc(C)c1 (centres undefined)"
  assigned.class: "N"
- molecule: "COc1cc(Nc2nc3c(c(Cc4ccccc4)n2)CN(CCO)CC3)ccc1-n1cnc(C)c1"
  assigned.class: "Y"
- molecule: "COc1cc(/C=C/C(=O)NC2CCc3ccccc3C2)ccc1-n1cnc(C)c1 (centres undefined)"
  assigned.class: "Y"
- molecule: "COc1cc(C2CC23CCCN(C(C)c2ccc(F)cc2)C3=O)ccc1-n1cnc(C)c1 (centres undefined)"
  assigned.class: "N"
- molecule: "COc1cc(NC(=O)C(C)N2CCc3ccc(Br)cc3C2)ccc1-c1ccnc(C)c1 (centres undefined)"
  assigned.class: "N"
- molecule: "CC(C)CC(C(=O)O)c1cc(CCc2ccc(-c3ccccc3)cc2)cc(-c2ccc(Cl)c(C(F)(F)F)c2)c1 (centres undefined)"
  assigned.class: "N"
- molecule: "COc1cc(-c2cn(C3CCc4c(F)cccc4N(CC(F)(F)F)C3=O)nn2)ccc1Oc1cccnc1 (centres undefined)"
  assigned.class: "N"
- molecule: "COc1cc(Nc2cccc3c2nc(-c2ccc(F)cc2)n3C)ccc1-n1cnc(C)c1"
  assigned.class: "Y"
- molecule: "COc1cc(Nc2nc(C)c(Cc3cccc(Cl)c3)s2)ccc1-n1cnc(C)c1"
  assigned.class: "N"
- molecule: "COc1cc(Nc2cccc3c2nc(-c2ccc(F)cc2)n3C)ccc1-c1cnc(C)o1"
  assigned.class: "Y"
- molecule: "COc1cc(Nc2ncc3c(n2)C(c2ccccc2)CCC3)ccc1-n1cnc(C)c1 (centres undefined)"
  assigned.class: "N"
- molecule: "COc1cc(C2CN(C(C)=O)CC3(CCCN(C(C)c4ccc(F)cc4)C3=O)C2)ccc1-n1cnc(C)c1 (centres undefined)"
  assigned.class: "N"
- molecule: "COc1cc(NC(=O)Nc2cc(Cl)ccc2C)ccc1-c1ccnc(C)c1"
  assigned.class: "N"
- molecule: "COc1cc(/C=C2\\OC[C@@H]3CCC[C@H](c4ccc(F)cc4)N3C2=O)ccc1-n1cnc(C)c1"
  assigned.class: "N"
- molecule: "COc1cc(/C=C/c2nc(-c3ccccc3)cn2C)ccc1-n1cnc(C)c1"
  assigned.class: "Y"

----------
# protocol: Inhibition of gamma secretase in Tg2576 mouse mixed brain cultures assessed as increase in Abeta38 production
pEC50: −log10 of the molar value.
quantity: pEC50

- chemical.structure: "CCc1cc(Nc2nc(-c3ccc(-n4cnc(C)c4)c(F)c3)cs2)c(C)cc1C"
  observed.value: 6.77

----------
# protocol: Half life in po dosed mouse
# Type: ADME, organism-based
# condition.parameters: in vivo
quantity: half-life (h)

- chemical.structure: "CCc1cc(Nc2nc(-c3ccc(-n4cnc(C)c4)c(F)c3)cs2)c(C)cc1C"
  observed.value: 2

----------
Catalogue of concentration at 6 h values
# protocol: Drug level in brain of rat at 10 mg/kg after 6 hrs
# Type: ADME, organism-based
# Design: dose 10 mg/kg
# condition.parameters: read-out: Drug uptake
quantity: concentration at 6 h (ng/g)

- chemical.structure: "COc1cc(Nc2cc(C#N)cn([C@@H](C)c3ccc(F)cc3)c2=O)ccc1-n1cnc(C)c1"
  observed.value: 917
- chemical.structure: "COc1cc(Nc2cc(C#N)cn(Cc3ccc(F)cc3)c2=O)ccc1-n1cnc(C)c1"
  observed.value: 391

----------
# protocol: Clearance in iv dosed mouse
# Type: ADME, organism-based
# condition.parameters: in vivo

- chemical.structure: "CCc1cc(Nc2nc(-c3ccc(-n4cnc(C)c4)c(F)c3)cs2)c(C)cc1C"
  clearance, mL/min/kg: 3.33

----------
# protocol: Selectivity index, ratio of IC50 for gamma secretase-mediated Abeta42 production to IC50 for […] gamma secretase-mediated Abeta40 production
Catalogue of Ratio IC50 values

- chemical.structure: "COc1cc(Nc2cccn([C@@H](C)c3ccc(F)cc3)c2=O)ccc1-n1cnc(C)c1"
  Ratio IC50: 152
- chemical.structure: "COc1cc(Nc2cc(C(F)F)cn([C@@H](C)c3ccc(F)cc3)c2=O)ccc1-n1cnc(C)c1"
  Ratio IC50: 450
- chemical.structure: "COc1cc(Nc2cc(C(F)(F)F)cn([C@@H](C)c3ccc(F)cc3)c2=O)ccc1-n1cnc(C)c1"
  Ratio IC50: 155
- chemical.structure: "COc1cc(Nc2cc(C#N)cn(Cc3ccc(F)cc3)c2=O)ccc1-n1cnc(C)c1"
  Ratio IC50: 126
- chemical.structure: "COc1cc(Nc2cc(C#N)cn([C@@H](C)c3ccc(F)cc3)c2=O)ccc1-n1cnc(C)c1"
  Ratio IC50: 135
- chemical.structure: "COc1cc(Nc2cccn(Cc3ccc(F)cc3)c2=O)ccc1-n1cnc(C)c1"
  Ratio IC50: 135

----------
# protocol: Drug level in non-transgenic mouse brain 30 mg/kg, po measured after 4 hrs
# Assay type: ADME, organism-based
# Parameters: dose 30 mg/kg, route oral
# condition.parameters: read-out: Drug uptake
Catalogue of concentration at 4 h values
quantity: concentration at 4 h

- molecule: "CC(C)CC(C(=O)O)c1cc(OCc2ccc(F)cc2C(F)(F)F)cc(-c2ccc(C(F)(F)F)cc2)c1 (configuration not stated)"
  quantity: "concentration at 4 h"
  observed.value: "5.1 µM"
- molecule: "CC(C)CC(C(=O)O)c1cc(OCc2cc(F)cc(F)c2)cc(-c2ccc(Cl)c(C(F)(F)F)c2)c1 (configuration not stated)"
  quantity: "concentration at 4 h"
  observed.value: "6.5 µM"

----------
# protocol: Inhibition of gamma secretase assessed as reduction in Abeta42 production
pIC50: −log10 of the molar value.
Catalogue of pIC50 values
quantity: pIC50

- molecule: "CC(C)CC(C(=O)O)c1cc(OCc2ccc(F)cc2C(F)(F)F)cc(-c2ccc(C(F)(F)F)cc2)c1 (stereo not drawn)"
  quantity: "pIC50"
  observed.value: 6.50
- molecule: "COc1nc(-c2nc3n(n2)CCC[C@@H]3c2cc(N(CC3CC3)CC3CC3)ccc2Cl)ccc1-n1cnc(C)c1"
  quantity: "pIC50"
  observed.value: 8.40
- molecule: "COc1cc(Nc2nc(C)cc(Oc3ccc(Cl)cc3)n2)ccc1-n1cnc(C)c1"
  quantity: "pIC50"
  observed.value: 6.42
- molecule: "CC(C(=O)O)c1ccc2c(c1)[nH]c1ccc(Cl)cc12 (stereo not drawn) [CARPROFEN]"
  quantity: "pIC50"
  observed.value: 4.12
- molecule: "CC(C)CCN(Cc1cc(-c2ccc(C(F)(F)F)cc2)cc(C(CC(C)C)C(=O)O)c1)Cc1ccc(F)c(F)c1 (stereo not drawn)"
  quantity: "pIC50"
  observed.value: 7.19
- molecule: "COc1cc(/C=C/c2nc(-c3ccccc3)c[nH]2)ccc1-n1cnc(C)c1"
  quantity: "pIC50"
  observed.value: 7.12
- molecule: "CC(C(=O)O)c1ccc(-c2ccccc2)c(F)c1 (racemic) [FLURBIPROFEN]"
  quantity: "pIC50"
  observed.value: 3.52
- molecule: "COc1nc(Nc2cccc3c2nc(-c2ccc(F)cc2)n3C)ccc1-n1cnc(C)c1"
  quantity: "pIC50"
  observed.value: 8.22
- molecule: "COc1cc(/C=C/c2nc3n(n2)CCC[C@@H]3c2ccccc2)ccc1-n1cnc(C)c1"
  quantity: "pIC50"
  observed.value: 7.96
- molecule: "COc1cc(-c2cn(C3CCc4c(F)cccc4N(CC(F)(F)F)C3=O)nn2)ccc1C#Cc1ccnc(C)c1 (stereo not drawn)"
  quantity: "pIC50"
  observed.value: 7.08
- molecule: "COc1cc(Nc2c(OC)cnn(C(C)c3ccccc3)c2=O)ccc1-n1cnc(C)c1 (stereo not drawn)"
  quantity: "pIC50"
  observed.value: 5.51
- molecule: "COc1cc(/C=C2\\OC(C)(C)CN([C@@H](C)c3ccc(F)cc3)C2=O)ccc1-n1cnc(C)c1"
  quantity: "pIC50"
  observed.value: 7.12
- molecule: "CC(C)CC(C(=O)O)c1cc(C#N)c(OCC2CC2)c(-c2ccc(C(F)(F)F)cc2)c1 (stereo not drawn)"
  quantity: "pIC50"
  observed.value: 6.56
- molecule: "CCCCCCCCCCn1c2ccc(Cl)cc2c2ccc(C(C)C(=O)O)cc21 (stereo not drawn)"
  quantity: "pIC50"
  observed.value: 5.54
- molecule: "COc1cc(Nc2nc(OC(C)C)nc(N(C)c3ccc(Cl)cc3)n2)ccc1-n1cnc(C)c1"
  quantity: "pIC50"
  observed.value: 6.92
- molecule: "COc1cc(Nc2nc3n(n2)CCCC[C@H]3c2ccc(OCC(F)(F)F)cc2)ccc1-n1cnc(Cl)c1"
  quantity: "pIC50"
  observed.value: 8.30
- molecule: "COc1cc(-c2cn([C@@H]3CCc4c(C)cc(C)cc4N(CC(F)(F)F)C3=O)nn2)ccc1-n1cnc(C)c1"
  quantity: "pIC50"
  observed.value: 7.68
- molecule: "COc1nc(-c2nc3n(n2)CCC[C@@H]3c2cc(N(CC3CC3)CC(F)(F)F)ccc2Cl)ccc1-n1cnc(C)c1"
  quantity: "pIC50"
  observed.value: 8.22
